- Tested on: PC-3 prostate
- method_notes: NCI-60 one-dose screen, 48 h (100 = growth as untreated, 0 = no growth, -100 = all killed)
- assay_conditions: 10 µM
This is part of a sample that, as a whole, favours compounds with a hit. Of some 83,000 tested, about 20% had one in any assay.
measurement_kind: growth (%)
One number for each entry, in %.

Record excerpt, results attached:
# compound_structure, measurement_kind, numeric_value
rows = [
    ("CCOC(=O)Cn1nnc(-c2ccc(OCc3ccccc3F)cc2)n1", "growth", 89),
    ("Cc1nnc2c3nnc(-c4ccc(Cl)cc4)n3c3ccccc3n12", "growth", 91.8),
    ("CS(=O)(=O)Nc1ccc(OCc2nnc(-c3ccc(Cl)cc3)o2)c(F)c1", "growth", 91),
    ("Cc1ccc(C)c(S(=O)(=O)NC2c3ccccc3Oc3ccccc32)c1", "growth", 89),
]

Given item O=C1/C(=C/c2cccs2)CCC/C1=C\c1cccs1 , the value recorded as its growth is 89.6

====

- System: COLO 205 colon
- method_notes: NCI-60 one-dose screen, 48 h (100 = growth as untreated, 0 = no growth, -100 = all killed)
- assay_conditions: 10 µM
Compounds without any hit were thinned out: in the full panel of roughly 83,000, 20% have a hit.
Please respond with reported growth for every item in the list.
Give bare numbers, in %.

Past entries and their recorded results:
# molecule, measurement_kind, numeric_value
measured = [
    ("Nc1nc(SCC#CCCl)c2[nH]cnc2n1", "growth", 47.7),
    ("Nc1nc2c(ncn2C2OC3COP(=O)(O)OC4C(COP(=O)(O)OC2C3O)OC(n2cnc3c(N)ncnc32)C4O)c(=O)[nH]1 (stereo not given)", "growth", 98.1),
    ("COc1ccc(-c2nsc3c2NC(=O)CC3c2ccc(Cl)cc2)cc1 (stereo not given)", "growth", 93.8),
]

Value sought for every listed molecule: growth.
1. C=CCOc1ccc2c(c1)CC[C@@H]1[C@@H]2CC[C@]2(C)C(=O)/C(=N/O)C[C@@H]12
2. C=C1C(=O)O[C@H]2[C@H]1CC/C(COC(=O)OCCCCCOC(=O)OC/C1=C/CC[C@@]3(C)O[C@H]3[C@H]3OC(=O)C(=C)[C@@H]3CC1)=C\CC[C@@]1(C)O[C@@H]21
3. Cc1nc2scc(-c3ccc(Cl)cc3)n2c(=O)c1CCN1CCOCC1
4. COc1ccc(NC(=O)c2sc3nc4c(cc3c2N)C(O)CCC4)cc1 (stereo not given)
5. N#Cc1ncc(-c2cc(F)ccc2F)c(NC2CCCCCC2)n1
6. COc1ccc(-c2cc(=O)n(-c3nc4ccccc4[nH]3)[nH]2)cc1OC
7. O=[N+]([O-])c1ccc(-c2nc(Cl)c3c(n2)CCCC3)o1
8. Cc1ccc(S(=O)(=O)N2CCc3ccccc3CC2)cc1

Result:
1. 40.8
2. -85
3. 99.9
4. 110
5. 100
6. 113
7. 68.5
8. 81

Please state, for each entry, its recorded growth.
1. Cn1c([N+](=O)[O-])cnc1/C=C1\Oc2ccc(Br)cc2C1=O
2. CC(C)=C1CCC(C)C/C1=N\N=C(N)N (stereo not given)
3. COc1ccc(COC(=O)CC(C)C)cc1
4. Cn1c([N+](=O)[O-])cnc1C=C1C(=O)c2ccccc2C1=O
5. CCCCCCCCCCCCCCCCCBr

Result:
1. -42.1
2. 108
3. 109
4. 42.3
5. 106

I would be grateful if you could provide growth for each of the following entries.
1. CS(=O)(=O)Nc1ccc(Nc2c3ccccc3nc3cc(Cl)ccc23)cc1
2. COc1cccc(C2(C)Nc3ccccc3-c3nc4ccccc4n32)c1 (stereo not given)

Result:
43.1
109
